method-notes: qHTS assay for small molecules that induce genotoxicity in human embryonic kidney cells expressing luciferase-tagged ATAD5 - cell viability (AID 651634); also: nearly all actives have a fitted effect of over 25% in size
condition-context: HEK293T ATAD5-luc cells viability, CellTiter-Fluor, 15.5 h; series mostly up to 83.3 µM
Records with an inconclusive call do not appear. Calls of active or inactive are those of the source. Calls follow the shape of the full dose curve.
experimental-readout: outcome

NC(N)=NCC1COC2(CCCCC2)O1 (stereo not drawn) : inactive
C[C@H](Cc1ccc(O)c(O)c1)[C@@H](C)Cc1ccc(O)c(O)c1 : inactive
c1ccc2cc3c4ccccc4c4ccccc4c3cc2c1 : inactive

----------
method-notes: qHTS assay to identify small molecule agonists of the progesterone receptor (PR) signaling pathway - cell viability counter screen (AID 1346799); also: nearly all actives have a fitted effect of over 45% in size
condition-context: PR-UAS-bla HEK293T viability, CellTiter-Glo luminescence, 16 h; series mostly up to 92.4 µM
Records with an inconclusive call do not appear. Calls of active or inactive are those of the source. Calls follow the shape of the full dose curve.
Returns: one label drawn from yes (1) = active, no (0) = inactive

Record excerpt, results attached:
CC1=CC[C@@H](C(C)(C)O)CC1 : no (0)
CCCC(C)C=O (configuration not stated) : no (0)
Nc1ccc2c(S(=O)(=O)O)cccc2c1S(=O)(=O)O : no (0)
CN[C@H]1CC[C@@H](c2ccc(Cl)c(Cl)c2)c2ccc(S(N)(=O)=O)cc21 : yes (1)
C=Cc1ccncc1 : no (0)
NCc1ccco1 : no (0)
C=COCCCC : no (0)
c1ccc2c(c1)-c1ccc3ccc4cccc5cc-2c1c3c45 : no (0)

Hello, I am checking results. What call was entered for CCCCCCCCSCc1cc(C)c(O)c(CSCCCCCCCC)c1 ?
no (0)

Hello, I am checking results. What call was entered for O=C1OCc2ccccc21 ?
no (0)

Hello, I am checking results. What call was entered for CCCCC/C=C\C=C\C(=O)OCC ?
no (0)

Hello, I am checking results. What call was entered for CC(O)(c1ccc(Cl)cc1)c1ccc(Cl)cc1 ?
no (0)

Hello, I am checking results. What call was entered for COc1cccc(-c2ccc(/C=C\CN3CCCCCC3)cc2Cl)c1 ?
no (0)

Hello, I am checking results. What call was entered for CN(C)CCOc1ccc(/C(=C(/CCCl)c2ccccc2)c2ccccc2)cc1 ?
yes (1)

Hello, I am checking results. What call was entered for Nc1cc([N+](=O)[O-])cc(Cl)c1O ?
no (0)

Hello, I am checking results. What call was entered for C=C(C)CCO ?
no (0)

Hello, I am checking results. What call was entered for Cc1ccc(C=O)cc1 ?
no (0)

Hello, I am checking results. What call was entered for CC(C)(C)c1cc(CCC(=O)OCCSCCOC(=O)CCc2cc(C(C)(C)C)c(O)c(C(C)(C)C)c2)cc(C(C)(C)C)c1O ?
no (0)

Hello, I am checking results. What call was entered for CC(C)(c1ccc(Oc2ccc(N)cc2)cc1)c1ccc(Oc2ccc(N)cc2)cc1 ?
no (0)

Hello, I am checking results. What call was entered for CCN(CC)c1ccc(C=O)c(O)c1 ?
no (0)

Hello, I am checking results. What call was entered for CC1(C)[C@H](C(=O)OCc2cccc(Oc3ccccc3)c2)[C@@H]1C=C(Cl)Cl ?
no (0)

Hello, I am checking results. What call was entered for ClC(c1ccccc1)(c1ccccc1)c1ccccc1 ?
no (0)

The reported measurements were obtained from PubChem BioAssay (Tox21).
